System: c-Abl (mouse);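 also: 11-residue human phosphosite peptides and single-mutation variants displayed on the E. coli surface, counted by deep sequencing, each peptide's frequency after selection divided by its frequency in the unselected input library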;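 also: frequency after pTyr selection over input frequency; kinase dosed for 20-30% of maximal phosphorylation in three min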
PROTOCOL_NOTES: phosphorylation enrichment, bacterial display (enrichment ratio); higher = better substrate or ligand; peptides without Tyr show the background
Please note: y applies when phosphorylation enrichment is 0.8 or greater, and n applies otherwise.

# SEQUENCE_CONTENT, GROUP_LABEL
data = [
    ("WQLEIYRASRP [ERCC4_Y594_R589W]", "y"),
    ("LGQRIYQFIRS [DYRK1B_Y271_Q275R_YF]", "y"),
    ("YPPDGYSRHCE [CTNND1_Y213_Y217C]", "n"),
    ("NGSFRYVIISQ [LRP1B_Y1988]", "n"),
    ("NWGKKYPTCNS [PTPRZ1_Y53]", "y"),
]

Q) Kindly determine if phosphorylation enrichment recorded for TSAEGYQDVRD [ABLIM1_Y439_P434T] is above or exactly 0.8.
A) n

Q) Kindly determine if phosphorylation enrichment recorded for PPEFSYGLQTQ [SRA1_Y35_Q32E] is above or exactly 0.8.
A) n

Q) Kindly determine if phosphorylation enrichment recorded for TMEDSYRKQVV [KRAS_Y40_I36M] is above or exactly 0.8.
A) n
